- measurement.description: MTT cell viability / cytotoxicity on normal fibroblasts
- Format: cell-based, mouse
- assay.conditions: mouse; 6.25 µg/mL, 48h; read-out: Cell viability on NCTC cells (%)
recorded.endpoint: viability at 48 h, 6.25 µg/mL (%)
// return numeric value only (unit: %, not printed)

Please report the recorded viability at 48 h, 6.25 µg/mL for Cc1nn(CN(Cn2nc(C)c([N+](=O)[O-])c2C)c2ccc(I)cc2)c(C)c1[N+](=O)[O-] . 103

Please report the recorded viability at 48 h, 6.25 µg/mL for C[C@@H]1CC[C@@]2(OC1)O[C@H]1C[C@H]3[C@@H]4CC=C5C[C@@H](O[C@@H]6O[C@H](CO)[C@@H](O[C@@H]7O[C@@H](C)[C@H](O)[C@@H](O)[C@H]7O)[C@H](O)[C@H]6O[C@@H]6O[C@@H](C)[C@H](O)[C@@H](O)[C@H]6O)CC[C@]5(C)[C@H]4CC[C@]3(C)[C@H]1[C@@H]2C [dioscin, reference compound] . 72.6

Please report the recorded viability at 48 h, 6.25 µg/mL for Cc1nn(CN(Cn2nc(C)c([N+](=O)[O-])c2C)c2ccc(Cl)cc2)c(C)c1[N+](=O)[O-] . 94.9

Please report the recorded viability at 48 h, 6.25 µg/mL for Cc1nn(CN(Cn2nc(C)c([N+](=O)[O-])c2C)c2cccc(Cl)c2)c(C)c1[N+](=O)[O-] . 89.5
